Tested on: XIP peptide (Xip251-270) binding
Test: XIP fragment 251-270 binding compounds – biochemical, small-molecule microarray, fluorescence 635/667 nm, 0.1 µg/mL protein, primary screen (AID 1182)
Details: fluorescent protein binding, 635 nm; higher = more signal, called active from +8 up or from −8 down unless noted
Entries and their composite z-score values follow.

| compound | composite z-score |
| --- | --- |
| COc1cc2c(cc1O)C(C)N(C)CC2 (stereo not given) | -0.191 |
| C[C@H]1O[C@H]2C3=C(C(=O)[C@@H]4O[C@@H]4[C@@H]3O)[C@@H]1[C@@H]1[C@@H](C)OC=C3[C@@H](O)[C@H]4O[C@H]4C(=O)[C@]312 | -0.7 |
| COc1cc2c(cc1O)C=[N+](C)CC2 | -1.21 |
| O=P(c1ccccc1)(c1ccccc1)N1CC2(CC2)CC(O)(c2ccccc2)C1 (stereo not given) | 0.115 |
| C=C(CC1(CNP(=O)(c2ccccc2)c2ccccc2)CC1)c1ccccc1 | 1.26 |
| CCOC(=O)[C@H]1CC=C2C(=O)Oc3ccc(Br)cc3[C@@H]21 | 0.874 |
| CCCc1cc2c(n1Cc1cccc(Cl)c1)C(C)C1CN(C(=O)c3ccccc3)C(C)(C(=O)OC)C21 (stereo not given) | 1.12 |
| OCc1ccc(C2=CC(C3CC3)N(Cc3sc4ccccc4c3Cl)CC2)cc1 (stereo not given) | 1.51 |
| COC(=O)[C@H]1[C@@H](O)[C@@]2(O)c3c(OC)cc(OC)cc3O[C@@]2(c2ccc(OC)cc2)[C@@H]1c1ccccc1 | -0.119 |
| COC(=O)C1(C)C=C2C(=C(C)C(=O)C2C)CN1 (stereo not given) | -0.309 |

###

Target: NADPH oxidase 2 (Homo sapiens) (UniProt P04839)
Sequence (P04839 whole entry, looked up): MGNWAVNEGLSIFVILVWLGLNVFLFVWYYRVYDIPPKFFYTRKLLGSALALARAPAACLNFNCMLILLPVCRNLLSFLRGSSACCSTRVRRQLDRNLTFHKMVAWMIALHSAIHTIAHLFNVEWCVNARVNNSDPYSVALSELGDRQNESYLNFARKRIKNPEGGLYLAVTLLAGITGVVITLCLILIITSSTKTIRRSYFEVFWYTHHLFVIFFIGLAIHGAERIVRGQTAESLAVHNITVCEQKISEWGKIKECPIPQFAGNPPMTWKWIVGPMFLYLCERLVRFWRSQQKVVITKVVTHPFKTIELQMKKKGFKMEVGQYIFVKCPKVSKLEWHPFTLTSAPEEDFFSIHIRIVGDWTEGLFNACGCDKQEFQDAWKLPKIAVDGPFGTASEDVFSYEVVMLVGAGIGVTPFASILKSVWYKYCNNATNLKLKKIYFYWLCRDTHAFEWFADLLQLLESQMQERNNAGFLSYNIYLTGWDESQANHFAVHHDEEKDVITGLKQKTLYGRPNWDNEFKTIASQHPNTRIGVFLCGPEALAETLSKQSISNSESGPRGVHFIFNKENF
Assay: compounds shifting NOX2 Amplex Red fluorescence – cell-based, HEK293-NOX2, PMA-stimulated, NOX inhibitor project, primary screen (AID 1159)
Conditions: 45 min; higher = more signal, called active from +8 up or from −8 down unless noted
assay_readout: z-score

| molecule | assay_readout | value_observed |
| --- | --- | --- |
| CCCc1cc2c(n1Cc1ccc(C)cc1)C(C)C1CN(C(=O)c3ccccc3)C(C)(C(=O)OC)C21 (stereo not given) | z-score | -0.714 |
| CCCc1cc2c(n1Cc1cccc(Cl)c1)C(C)C1CN(C(=O)c3ccccc3)C(C)(C(=O)OC)C21 (stereo not given) | z-score | -1.21 |
| CCOC(=O)[C@H]1CC=C2C(=O)Oc3ccc(Br)cc3[C@@H]21 | z-score | -0.0356 |
| COc1cc2c(cc1O)C=[N+](C)CC2 | z-score | -3.74 |
| CCOC(=O)[C@H]1CC=C2C(=O)Oc3ccccc3[C@@H]21 | z-score | 0.00603 |

###

Biological target: Torsin-1A-interacting protein 2 (Homo sapiens)
Experiment: small molecules binding lysate-expressed LULL1 – cell lysate, human LULL1 lysate, 635/667 nm fluorescence, primary screen (AID 1092);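 also: probe is lysate of COS7 cells overexpressing human LULL1; score merges per-feature 667 nm fluorescence with signal-to-noise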
Conditions: small-molecule microarray, hLULL1 lysate binding, 635 nm fluorescence; higher = more signal

| molecule | assayed_system | composite z-score |
| --- | --- | --- |
| CCOC(=O)[C@H]1CC=C2C(=O)Oc3ccccc3[C@@H]21 | Torsin-1A-interacting protein 2 (Homo sapiens) | 1.55 |
| OCc1ccc(C2=CC(C3CC3)N(Cc3sc4ccccc4c3Cl)CC2)cc1 (stereo not given) | Torsin-1A-interacting protein 2 (Homo sapiens) | 1.55 |
| COC(=O)[C@@]1(Cc2ccccc2)[C@H]2c3cc(C(=O)N(C)C)n(C)c3C[C@H]2CN1C(=O)c1ccccc1 | Torsin-1A-interacting protein 2 (Homo sapiens) | 3.35 |
| CN1CCC(c2ccc(CO)cc2)=CC1C1CC1 (stereo not given) | Torsin-1A-interacting protein 2 (Homo sapiens) | -0.183 |
| COC(=O)[C@@]1(Cc2ccccc2)[C@H]2c3cc(C(=O)N(C)C)[nH]c3C[C@H]2CN1C(=O)c1ccccc1 | Torsin-1A-interacting protein 2 (Homo sapiens) | 0.745 |
| CCCc1cc2c(n1Cc1ccco1)C(C)C1CN(C(=O)c3ccccc3)C(C)(C(=O)OC)C21 (stereo not given) | Torsin-1A-interacting protein 2 (Homo sapiens) | 2.03 |
| CCCC=C(CCC)[C@@H](NP(=O)(c1ccccc1)c1ccccc1)c1ccccc1 | Torsin-1A-interacting protein 2 (Homo sapiens) | 0.732 |
| CCCc1cc2c(n1Cc1ccc(C)cc1)C(C)C1CN(C(=O)c3ccccc3)C(C)(C(=O)OC)C21 (stereo not given) | Torsin-1A-interacting protein 2 (Homo sapiens) | 3.08 |
| COC(=O)C1(C)C=C2C(=C(C)C(=O)C2C)CN1 (stereo not given) | Torsin-1A-interacting protein 2 (Homo sapiens) | -0.132 |
| CCCc1cc2c(n1Cc1cccc(Cl)c1)C(C)C1CN(C(=O)c3ccccc3)C(C)(C(=O)OC)C21 (stereo not given) | Torsin-1A-interacting protein 2 (Homo sapiens) | 3.21 |
| C[C@H]1O[C@H]2C3=C(C(=O)[C@@H]4O[C@@H]4[C@@H]3O)[C@@H]1[C@@H]1[C@@H](C)OC=C3[C@@H](O)[C@H]4O[C@H]4C(=O)[C@]312 | Torsin-1A-interacting protein 2 (Homo sapiens) | -0.697 |
| C[C@@H]1Cc2c(cnc3c2CN(C)CC3)CO1 | Torsin-1A-interacting protein 2 (Homo sapiens) | -0.0214 |
| COc1cc2c(cc1O)C=[N+](C)CC2 | Torsin-1A-interacting protein 2 (Homo sapiens) | -0.496 |
| CCOC(=O)[C@H]1CC=C2C(=O)Oc3ccc(Br)cc3[C@@H]21 | Torsin-1A-interacting protein 2 (Homo sapiens) | 2.61 |
| OCc1ccc(C2=CC(c3cccs3)N(Cc3cccc(OC(F)(F)F)c3)CC2)cc1 (stereo not given) | Torsin-1A-interacting protein 2 (Homo sapiens) | 1.1 |
| O=P(c1ccccc1)(c1ccccc1)N1CC2(CC2)CC(O)(c2ccccc2)C1 (stereo not given) | Torsin-1A-interacting protein 2 (Homo sapiens) | 3.57 |
| C[C@@H]1OC=C2[C@@H](O)[C@H]3O[C@H]3C(=O)[C@]23[C@H]1[C@H]1C2=C([C@@H](O)[C@H]4O[C@H]4C2=O)[C@@H]3O[C@@H]1C | Torsin-1A-interacting protein 2 (Homo sapiens) | -0.957 |
| C=C(CC1(CNP(=O)(c2ccccc2)c2ccccc2)CC1)c1ccccc1 | Torsin-1A-interacting protein 2 (Homo sapiens) | 1.98 |
| C=C(CC1(C(C)NP(=O)(c2ccccc2)c2ccccc2)CC1)c1ccccc1 (stereo not given) | Torsin-1A-interacting protein 2 (Homo sapiens) | 3.44 |
| c1ccc(-c2cc3c(nc2-c2ccccc2)CCNC3)cc1 | Torsin-1A-interacting protein 2 (Homo sapiens) | -0.908 |
